System: HOP-62 NSCLC
assayDetails: NCI-60 one-dose screen, 48 h
recordedConditions: 10 µM unless noted
This is part of a sample that, as a whole, favours compounds with a hit. Of some 83,000 tested, about 20% had one in any assay. The source made the active and inactive calls. The calls were made as follows: active = growth percent below 10; inactive = the rest.
Your answer must be one of the following: active, inactive

Please review the entries below; each comes with its answer.
- molecule: "CCOC(=O)CCC(=O)O[C@H]1[C@H](O[C@@H]2[C@@H](C)[C@H](O[C@H]3C[C@@](C)(OC)[C@@H](O)[C@H](C)O3)[C@@H](C)C(=O)O[C@H](CC)[C@@](C)(O)[C@H](O)[C@@H](C)C(=O)[C@H](C)C[C@@]2(C)O)O[C@H](C)C[C@@H]1N(C)C"
  labelValue: "inactive"
- molecule: "COc1cc(C(=O)/C=C/c2cccc(Nc3ccnc4cc(Cl)ccc34)c2)cc(OC)c1OC"
  labelValue: "active"
- molecule: "CC(C)OP(=O)(OC(C)C)c1ncc(-c2ccc(C(F)(F)F)cc2)c(NC2CCCCCC2)n1"
  labelValue: "active"
- molecule: "COc1ccc(C(=O)COc2cccc(/C=C3\\COc4ccc5ccccc5c4C3=O)c2)cc1"
  labelValue: "inactive"

Hi, sorry to bother you, what did the test record for CCOC1Oc2ccccc2C(=O)/C1=N/c1nccs1 (configuration not stated) ?
inactive

Dear all, I need the recorded test outcome for C=C1CCC2C(C)(COC(=O)CC)C(OC(=O)CC)CCC2(C)C1C/C=C1/C(=O)OCC1OC(=O)CC (configuration not stated) , thank you.
active

I would be grateful if you could indicate the recorded call for O=C(/C=C/c1c(-c2ccccc2)[nH]c2ccccc12)S(=O)(=O)c1ccccc1 .
inactive
